# tgt: 5-HT2A receptor (Rattus norvegicus, UniProt P14842)
# Construct: from tissue; host or cells: rat frontal cortex (male SD), membrane homogenate
# Sequence (P14842 whole entry): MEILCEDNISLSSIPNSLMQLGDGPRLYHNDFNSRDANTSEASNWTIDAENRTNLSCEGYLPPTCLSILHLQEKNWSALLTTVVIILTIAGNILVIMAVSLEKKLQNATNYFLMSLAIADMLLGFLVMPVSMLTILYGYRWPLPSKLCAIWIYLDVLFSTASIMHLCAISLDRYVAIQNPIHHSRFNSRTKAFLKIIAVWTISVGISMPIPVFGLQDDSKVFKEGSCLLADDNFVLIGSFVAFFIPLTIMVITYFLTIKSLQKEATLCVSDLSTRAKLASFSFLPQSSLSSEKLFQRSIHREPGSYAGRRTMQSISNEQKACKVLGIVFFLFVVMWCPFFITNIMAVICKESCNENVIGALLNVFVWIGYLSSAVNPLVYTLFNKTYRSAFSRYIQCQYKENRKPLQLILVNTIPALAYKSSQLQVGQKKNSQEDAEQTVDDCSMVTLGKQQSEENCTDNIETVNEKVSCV
# experimentalProtocol: 5-HT2A competition binding assay, [3H]ketanserin, frontal cortex homogenates
# runParameters: [3H]ketanserin 1 nM, read-out: Ki (nM ± SEM) (converted)
So basically, if Ki comes in under 2000 nM it's True, and if it's 2000 nM or more it's False.

* CC(=O)c1c(C)cc2oc(=O)cc(C)c2c1OCCCCCN1CCN(c2ccccc2F)CC1 | True
* COc1cccc(N2CCN(CCOc3ccc4c(C)cc(=O)oc4c3C(C)=O)CC2)c1 | True

INPUT: Take the molecule CC(=O)c1c(C)cc2oc(=O)cc(C)c2c1OCCCCCN1CCN(c2ccccc2Br)CC1 and say whether its Ki is less than 2000 nM.
OUTPUT: True

INPUT: Similarly, CC(=O)c1c(C)cc2oc(=O)cc(C)c2c1OCCN1CCN(c2cc(C)cc(C)c2)CC1 ?
OUTPUT: True

INPUT: Record: CC(=O)c1c(OCCCCCN2CCN(c3cccc(F)c3)CC2)ccc2c(C)cc(=O)oc12
OUTPUT: False

INPUT: Ok, now Cc1cc(OCCCCCN2CCN(c3ccccc3C#N)CC2)c2c(C)cc(=O)oc2c1
OUTPUT: True

INPUT: Would you mind doing CC(=O)c1c(C)cc2oc(=O)cc(C)c2c1OCCN1CCN(c2cccc(Br)c2)CC1 as well?
OUTPUT: False
